System: pAb 313
experimentSummary: Cross reactivity of compounds spiked in buffer with pAb 313
Type: binding, rabbit
statedConditions: compound spiked in buffer
endpointName: Cross Reactivity of 313 (vs TFV standard)

Nc1nc2c(ncn2[C@H]2C[C@H](O)[C@@H](COP(=O)(O)OP(=O)(O)OP(=O)(O)O)O2)c(=O)[nH]1 [2′Deoxyguanosine 5′ Triphosphate]    None
Nc1ncnc2c1ncn2[C@@H]1O[C@H](COP(=O)([O-])OP(=O)([O-])OP(=O)(O)O)[C@@H](O)[C@H]1O.[Na+].[Na+] [Adenosine 5′ Triphosphate Disodium]    None
CNc1ncnc2c1ncn2[C@@H]1O[C@H](CO)[C@@H](O)[C@H]1O [N6 Methyladenosine]    None
